- method.summary: yeast display, Sf9 membrane polyspecificity reagent, FACS + sequencing; frameworks hold sequencing errors
measure: polyreactivity (PSR sort gate)

The following sequences have reported results that may help.
record_sequence=QVQLVESGGGLVQAGGSLRLSWAASGFTFKYYDMGWYRLAPGQERELVAAIDTSGGNTYYADSVKGRFTISRDNAKNTGYVQMNSLKPEETAVDYCAATVPYYHDDYWGQGTQVTVSS endpoint_result="low polyreactivity"
record_sequence=QVQLVESGGGLVQAGGSLRLSCGASGSISKINAMGWYRQARGKERELVAAINTGDSTYYADSVKGRFTISRDNAKNTVYLQRNSLKPEDTAVYYCAAEGSPTGYDYWGLGTQVTVSS endpoint_result="low polyreactivity"
record_sequence=QVQLVESGGGLVQAGGSLRLSCAASGRLFYYNAMGWYRQAPGKERELVAAISWSGGSTYYADSVKGRFTISRDNAKNTVYLQMNSLKPEDTAVYYCAVDVYGYTPRPTREPLIYEYWGQGTQVTVSS endpoint_result="low polyreactivity"
record_sequence=QVQLVESGGGLLQAGGSLRLSCAASGSIFGGNAMGWYRQAPGKEREFVAAITVSDGSTYYADSVKGRFTISRDNAKNTVYLQMNSLKPEDTAVYYCAAGGFYYPHYDYWGQGSQVTVSS endpoint_result="low polyreactivity"
record_sequence=QVQRVESGGGLVQAGGSLRLSCAASGRTFFGYAMGWYRQAPGKERELVAAITSGGSTNYADSVKGRFTISRDNAKNTVYLQMNSLKPEDTAVYYCAASEDGSVSYESTYPEYDYWGQGTQVTVSS endpoint_result="low polyreactivity"

Item under review: QVQLVESGGGLVQAGGSLRLSCAASGSIFTWYTMGWYRQAPGKERELVAAISWSGGRTYYADSVKGRFTISRDNAKHTVYLQMNSLKPEDTAVYYCAASAYGRPPFDYWGQGTQVTVSS . Reported polyreactivity (PSR sort gate)? high polyreactivity

Item under review: QDQLVESGGGLVQAGGSLRLICAASGLIFGFNTMACYRQAPGKESEFVAAINGSDGSTYADSVKGRFTISRDNAKNTVYLQMNSLKPEDTAVYYCAARYGSPKEYTYADMDYWGQGTQVTVSS . Reported polyreactivity (PSR sort gate)? low polyreactivity

Item under review: QVQLVESGGGLVQAGGSLRLSCAASGRIFKYYAMGWYRQAPGKERELVAAISRSGGSTYYADSVKGRFSISRDNAKNTVYLQMNSLKPEDTAVYYCAAGYKQATYDRIRTAYGYWGQGTQVTVSS . Reported polyreactivity (PSR sort gate)? high polyreactivity

Item under review: QVQLVESGGGLVQAGGSLRLSCAASGITFYGNAMGWYRQAPGKERELVANTYYADSVKGRFTISRDNAKNTVYLQMNSLKPEDTAVYYCATRNARYRSQPPGYDYWGQGTQVTVSS . Reported polyreactivity (PSR sort gate)? low polyreactivity

Item under review: QVQLVESGGGLVQAGGSLRLSCASSGRNFGYDGMGWYRQAPGKERELVAAITYRGGSTYYADSVKGRFTISRDNAKNTVYLQMNSLKPEDTAVYYCAADGYSHYRYLYDYWGQGTQVTVSS . Reported polyreactivity (PSR sort gate)? low polyreactivity

Item under review: QVQLVESGGGLVQAGGSLRLSCAASGLTFDAYAMGWYRQAPGKERELVAAISSGGNTYYADSVKGRFTISRDNAKNTVYLQMNSLKPEDTAVYYCNAVGYYKYFVLAYEYDYWGQGTQVTVSS . Reported polyreactivity (PSR sort gate)? low polyreactivity
